Test system: IMR-90 cells
assay.procedure: Cell toxicity screen of synthetic lethal miRNAs in non-cancer cells
experimental.setup: IMR-90, miRNA + low dose IC30 vincristine
metric.name: cell viability in non-cancer cells, VCR (% of control)

[Q] # query: cell viability in non-cancer cells, VCR (% of control) of entry hsa-miR-99b-5p (guide CACCCGUAGAACCGACCUUGCG; chemistry not given here; listed as Homo sapiens)
[A] 75 % of control

[Q] Can you check hsa-miR-34a-5p (UGGCAGUGUCUUAGCUGGUUGU; chemistry not given here; listed as Homo sapiens) next?
[A] 63 % of control

[Q] Can you check hsa-miR-515-3p (guide GAGUGCCUUCUUUUGGAGCGUU; chemistry not given here; listed as Homo sapiens) next?
[A] 51 % of control

[Q] Can you check hsa-miR-1321 (CAGGGAGGUGAAUGUGAU; chemistry not given here; listed as Homo sapiens) next?
[A] 23 % of control

[Q] Can you check hsa-miR-380-3p (UAUGUAAUAUGGUCCACAUCUU; chemistry not given here; listed as Homo sapiens) next?
[A] 117 % of control

[Q] Can you check hsa-miR-485-3p (guide GUCAUACACGGCUCUCCUCUCU; chemistry not given here; listed as Homo sapiens) next?
[A] 80 % of control
